meta.source: PubChem BioAssay (NCI)

- ASSAY COMMENT: NCI Yeast Anticancer Drug Screen. Data for the mlh1 rad18 strain (AID 175)
- SETUP CONDITIONS: S. cerevisiae mlh1 rad18 strain growth inhibition; at 50.0 µM (retest, dose inferred, filed as 5.0); active compounds read high
- Procedure: Growth inhibition of yeast strains with defined genetic alterations is measured as a screen for potential anti-cancer activity. Selected strains with alterations in DNA damage repair or cell cycle control were exposed to compounds and growth inhibition was measured relative to vehicle treated controls. The strain used in this assay is mlh1 rad18
About 79,000 compounds went through this panel and 15% of them were active in at least one assay; those are over-represented in the sample as a whole.
MEASUREMENT LABEL: growth inhibition (%)
The answer is to be given in %; state only the numeric part.

Below: 4 molecules and their reported growth inhibition.
>>> value("CCCCc1c2c(nc3c1CC/C(=C\\c1ccc([N+](=O)[O-])cc1)C3=O)CCCC2")
88
>>> value("Cc1ccc(S(=O)(=O)NCCCSCCO)cc1")
90
>>> value("Cc1ccc2sc3ccc(N)cc3c(=O)c2c1")
92
>>> value("CC(C)=CCc1c2c(c3occ(-c4ccc(O)c(O)c4)c(=O)c3c1O)C=CC(C)(C)O2")
90

// next entry
Inquiry: So what's the measured growth inhibition for this one? "CC(=O)OC[C@@]1(C)[C@@H]2CC[C@]3(C)[C@H](C(=O)C=C4[C@@H]5CC(C)(C)CC[C@]5(C(=O)O)CC[C@]43C)[C@@]2(C)CC[C@@H]1OC(C)=O"
Reply text: 88

====

- ASSAY COMMENT: NCI Yeast Anticancer Drug Screen. Data for the rad50 strain (AID 155);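 also: 0% = growth of vehicle-only cultures of the same strain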
- SETUP CONDITIONS: S. cerevisiae rad50 strain growth inhibition; at 50.0 µM (retest, dose inferred, filed as 5.0)
About 79,000 compounds went through this panel and 15% of them were active in at least one assay; those are over-represented in the sample as a whole. The source made the active and inactive calls. No stated cut-off is given here; in the data, active means growth inhibition above about 70%; inactive means the rest.
// one of True = active, False = inactive, no free text

Inquiry: Any idea what this test logged for CCOC1(OCC)C(C)C(c2ccccc2)C(c2ccccc2)C1C (stereo not given) ?
Reply text: False

Inquiry: Any idea what this test logged for CCC(=C(c1ccc(OCCN(C)C)cc1)c1cccc(O)c1)c1ccccc1 (mixture of isomers) ?
Reply text: True

Inquiry: Any idea what this test logged for Nc1ccccc1SC(/C=C/NNC1=NC(c2ccccc2)C(c2ccccc2)=NN1)c1ccccc1 (stereo not given) ?
Reply text: False

Inquiry: Any idea what this test logged for "CN(C)c1ccc(/C=C/c2ccnc3ccccc23)c(O)c1" ?
Reply text: False

Inquiry: Any idea what this test logged for CC(C)c1cc(C(C)C)c(Cl)c(Cl)c1O (tested in a mixture with another compound) ?
Reply text: False

====

- ASSAY COMMENT: NCI Yeast Anticancer Drug Screen. Data for the rad50 strain (AID 155);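 also: 0% = growth of vehicle-only cultures of the same strain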
- SETUP CONDITIONS: S. cerevisiae rad50 strain growth inhibition; at 5.0 µM (retest, dose inferred, filed as 0.5)
Compounds without any hit were thinned out: in the full panel of roughly 79,000, 15% have a hit. Calls of active or inactive are those of the source. Cut-off read from the data, not from the text of the source: active = growth inhibition above about 70%; inactive = the rest.
// one of t for active, f for inactive, no free text

As a guide, the following entries are already answered.
>>> qualitative_label("CC(=O)c1ccc([N+](=O)[O-])o1")
"f"
>>> qualitative_label("CN(C)C(=S)Oc1ccc(C(C)(C)C)cc1")
"f"
>>> qualitative_label("CN(C)CC1CCC2=C(C1=O)C(c1ccc(Cl)c(Cl)c1)C1=C(CCC(CN(C)C)C1=O)O2 (centres undefined)")
"f"
>>> qualitative_label("Cn1c(-c2ccc(/C=N/NC(=S)N/N=C/c3ccc(-c4c[n+]5ccsc5n4C)cc3)cc2)c[n+]2ccsc12")
"t"
>>> qualitative_label("Cc1nc(-c2ccc(N=Cc3ccc(N(CCOS(C)(=O)=O)CCOS(C)(=O)=O)cc3Cl)cc2)c(C)s1")
"f"
>>> qualitative_label("C#CC(C)(C)OC(C)=O")
"f"
>>> qualitative_label("C=C(C)COc1cc(NC(=S)OC(C)C)ccc1Cl")
"f"
>>> qualitative_label("COc1ccc(Cc2coc3ccccc3c2=O)cc1OC")
"f"

Inquiry: Any idea what this test logged for "CCS/C(SC)=C(/c1ccccc1)[P+](c1ccccc1)(c1ccccc1)c1ccccc1" ?
Reply text: t

Inquiry: Any idea what this test logged for "COc1ccc2c(C(=O)c3ccccc3)c3[n+](cc2c1OC)CCc1cc2c(cc1-3)OCO2" ?
Reply text: f

Inquiry: Any idea what this test logged for CCOc1ccc2c(c1)CCC1C2CCC2(C)CC(O)CC12 (centres undefined) ?
Reply text: f

Inquiry: Any idea what this test logged for "CN(C)c1ccc(SC(=S)NCc2ccccc2)cc1" ?
Reply text: f

====

- ASSAY COMMENT: NCI Yeast Anticancer Drug Screen. Data for the cln2 rad14 strain (AID 165);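 also: 0% = growth equal to vehicle treated cultures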
- SETUP CONDITIONS: S. cerevisiae cln2 rad14 strain, at 50.0 µM (retest, dose inferred, filed as 5.0), active compounds read high
This is part of a sample that, as a whole, favours compounds with a hit. Of some 79,000 tested, about 15% had one in any assay.
MEASUREMENT LABEL: growth inhibition (%)
The answer is to be given in %; state only the numeric part.

Below: 3 molecules and their reported growth inhibition.
>>> value("CN(C)CC1CCC2=C(C1=O)C(c1ccc(Cl)c(Cl)c1)C1=C(CCC(CN(C)C)C1=O)O2 (centres undefined)")
-3
>>> value("O=C(NO)Nc1nc(Cl)c(Cl)nc1Cl")
99
>>> value("OCCN1COc2cc3c(cc2C1)OCN(CCO)C3")
-5

Inquiry: So what's the measured growth inhibition for this one? "C(=N\NC1=NCCN1)/c1ccc(-c2cn3cc(/C=N/NC4=NCCN4)ccc3n2)cc1"
Reply text: 98

Inquiry: So what's the measured growth inhibition for this one? "Cc1occc1C(=S)Nc1ccc(Cl)c(C(=O)OCC(F)(F)F)c1"
Reply text: 97

Inquiry: So what's the measured growth inhibition for this one? "CCCCCN(CCCCC)C(=O)CCl"
Reply text: 7

====

- ASSAY COMMENT: NCI Yeast Anticancer Drug Screen. Data for the rad50 strain (AID 155);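 also: 0% = growth of vehicle-only cultures of the same strain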
- SETUP CONDITIONS: S. cerevisiae rad50 strain growth inhibition; at 5.0 µM (retest, dose inferred, filed as 0.5); active compounds read high
Compounds without any hit were thinned out: in the full panel of roughly 79,000, 15% have a hit.
MEASUREMENT LABEL: growth inhibition (%)
The answer is to be given in %; state only the numeric part.

>>> value("CCOP(=O)(OCC)C(NC(=O)OCC(Cl)(Cl)Cl)n1nnc(C(=O)OC)c1C(=O)OC (centres undefined)")
-7
>>> value("C=CCNC(=S)N/N=C(\\CCC)c1ccccn1")
98
>>> value("COc1ccc(C(c2c(O)c3ccccc3oc2=O)N2CCOCC2)c(OC)c1 (centres undefined)")
-4

// next entry
Inquiry: So what's the measured growth inhibition for this one? "C/C(CCn1[nH]c(=O)ccc1=O)=N\Nc1ccc([N+](=O)[O-])cc1[N+](=O)[O-]"
Reply text: 44

====

- ASSAY COMMENT: NCI Yeast Anticancer Drug Screen. Data for the cln2 rad14 strain (AID 165);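 also: 0% = growth equal to vehicle treated cultures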
- SETUP CONDITIONS: S. cerevisiae cln2 rad14 strain, at 50.0 µM (retest, dose inferred, filed as 5.0), active compounds read high
The panel holds about 79,000 compounds, 15% with a hit somewhere; the sample as a whole holds those more often. The source made the active and inactive calls. No stated cut-off is given here; in the data, active means growth inhibition above about 70%; inactive means the rest.
MEASUREMENT LABEL: growth inhibition

Below: 5 compounds and their reported growth inhibition.
>>> value("CCOc1ccccc1/C=N/Nc1nnc(N/N=C/c2ccccc2OCC)c2ccccc12")
"58% (inactive)"
>>> value("C=CCNC(=S)N/N=C(\\CCC)c1ccccn1")
"93% (active)"
>>> value("NC(=S)NNc1c([N+](=O)[O-])cnn(-c2ccccc2)c1=O")
"16% (inactive)"
>>> value("O=C1/C(=C\\c2ccc([N+](=O)[O-])o2)Oc2cc(O)ccc21")
"98% (active)"
>>> value("O=C1c2cccc(O)c2C(=O)c2c(O)cc(CO)cc21")
"81% (active)"

Inquiry: So what's the measured growth inhibition for this one? "O=C(O)c1ccccc1-c1ccccc1C(=O)Nc1ccc2c(c1)Cc1cc(F)ccc1-2"
Reply text: 96% (active)

Inquiry: So what's the measured growth inhibition for this one? "CN1C(C)(C)CC(O)(C#N)CC1(C)C"
Reply text: 97% (active)

Inquiry: So what's the measured growth inhibition for this one? CCC1CCC2C3CC=C4CC(OC(C)=O)C(N)CC4(C)C3CCC12C (stereo not drawn)
Reply text: 95% (active)

====

Catalogue of compounds with associated growth inhibition
- ASSAY COMMENT: NCI Yeast Anticancer Drug Screen. Data for the bub3 strain (AID 167)
- SETUP CONDITIONS: S. cerevisiae bub3 mutant strain, at 5.0 µM (retest, dose inferred, filed as 0.5), active compounds read high
About 79,000 compounds went through this panel and 15% of them were active in at least one assay; those are over-represented in the sample as a whole.
The answer is to be given in %; state only the numeric part.

Below: 8 compounds and their reported growth inhibition.
>>> value("COC(=O)c1nnn(-c2ccc(S(N)(=O)=O)cc2)c1C(=O)c1ccc(Cl)c(Cl)c1")
30
>>> value("CCC1CCC2C3CC=C4CC(OC(C)=O)C(N)CC4(C)C3CCC12C (stereo not given)")
-5
>>> value("O=C1Oc2cc3c(c4cccc1c24)OCN(c1ccccc1)C3")
-17
>>> value("NS(=O)(=O)c1ccc(Nc2c3ccccc3nc3c(C(=O)NC(CO)(CO)CO)cccc23)cc1")
-9
>>> value("CN(C)C=Nc1ccc2nonc2c1")
15
>>> value("O=C(O)C1OC(Oc2ccc3oc4ccccc4c(=O)c3c2)C(O)C(O)C1O (stereo not given)")
10
>>> value("CC(=O)c1c2c(cc3c1CC1(C3)Cc3cc4c(c(C(=O)O)c3C1)CCC4)CCC2 (stereo not given)")
63
>>> value("CC(CCCN(C)Cc1ccccc1)Nc1ccnc2cc(Cl)ccc12 (stereo not given)")
86

Inquiry: So what's the measured growth inhibition for this one? "O=C(c1ccccc1)c1ccc(Br)cc1O"
Reply text: -12

Inquiry: So what's the measured growth inhibition for this one? "CN(NC(=O)/C(=C/c1ccc2c(c1)OCO2)NC(=O)c1ccccc1)c1ccnc2cc(Cl)ccc12"
Reply text: 8

Inquiry: So what's the measured growth inhibition for this one? "CC(C)Cn1cnc2c(SCc3ccccc3[N+](=O)[O-])nc(N)nc21"
Reply text: -1

Inquiry: So what's the measured growth inhibition for this one? "O=c1c2c(F)c(F)c(F)c(F)c2sc2nccn12"
Reply text: 27

Inquiry: So what's the measured growth inhibition for this one? "CC(=NCC(=O)O)c1ccccc1"
Reply text: 10

Inquiry: So what's the measured growth inhibition for this one? COc1ccc(/C=C2/C(=O)NC3SC=C(c4cccc([N+](=O)[O-])c4)N23)cc1 (stereo not given)
Reply text: 21

Inquiry: So what's the measured growth inhibition for this one? "COc1cc(OC)c(C/C=C/c2ccccc2)cc1O"
Reply text: 29

Inquiry: So what's the measured growth inhibition for this one? CC12CCC3c4cc(O)ccc4CCC3C1CCC2O (stereo not given)
Reply text: -1

Inquiry: So what's the measured growth inhibition for this one? "COc1cc(/C=C2\Sc3scc(-c4cccc([N+](=O)[O-])c4)[n+]3C2=O)cc(OC)c1OC"
Reply text: -10

Inquiry: So what's the measured growth inhibition for this one? "c1ccc(-c2cc(Nc3ccc4c(c3)OCO4)c3cc(C4CCCCC4)ccc3n2)cc1"
Reply text: 4

Inquiry: So what's the measured growth inhibition for this one? O=C1OC(OC/C(Br)=C(/Br)COC2OC(=O)C(Cl)=C2Cl)C(Cl)=C1Cl (stereo not given)
Reply text: 84

Inquiry: So what's the measured growth inhibition for this one? "CCCSc1n[nH]c(=S)s1"
Reply text: -6

Inquiry: So what's the measured growth inhibition for this one? "CC(C)CCOC(=O)Nc1cccc(Cl)c1"
Reply text: 47

Inquiry: So what's the measured growth inhibition for this one? COC(=O)C1(Cc2ccccc2C)Cc2ccc(C)cc2C1=O (stereo not given)
Reply text: 9
